tested on: Fibroblast; experiment: Multiplex assay against human fibroblast; type: toxicity, cell-based; conditions: 48 h, 1 µM, compound concentration 1 uM, replicate 2
Population Fragmented Nuclei (%) reference
Write it as a number; the unit % goes unstated.

Use the examples below as a reference point.
# compound, Population Fragmented Nuclei (%)
records = [
    ("OC1(c2ccc(Cl)cc2)CCN(Cc2c[nH]c3ccccc23)CC1", 43),
    ("COc1cc(-n2cnc3cc(-c4ccc(Cl)cc4)sc3c2=O)ccc1OCCN1CCCC1", 36),
    ("Cn1cc(-c2[nH]c3cc(NC(=O)[C@H](N)C4CCCCC4)cc4c3c2C=NNC4=O)cn1", 47),
]

Entry "CN(C)C(=O)/C(C#N)=C/c1ccc(-c2nc3cnc4[nH]ccc4c3n2C2CCCCC2)o1" under Fibroblast had Population Fragmented Nuclei (%) of 24

Entry CN1CCCC(n2nc(Cc3ccc(Cl)cc3)c3ccccc3c2=O)CC1.Cl (stereo not drawn) [AZELASTINE HYDROCHLORIDE] under Fibroblast had Population Fragmented Nuclei (%) of 31

Entry CN(C)CC#Cc1ccc(OCCCc2sc(N3CCc4cccc(C(=O)Nc5nc6ccccc6s5)c4C3)nc2C(=O)O)c(F)c1 [A-1155463] under Fibroblast had Population Fragmented Nuclei (%) of 35

Entry CN1CCN(CCOc2cc(OC3CCOCC3)c3c(Nc4c(Cl)ccc5c4OCO5)ncnc3c2)CC1 [SARACATINIB] under Fibroblast had Population Fragmented Nuclei (%) of 31

Entry "Cc1csc2c(N[C@@H](C)CN3CCN(S(=O)(=O)c4ccc(Cl)c(Cl)c4)CC3)ncnc12" under Fibroblast had Population Fragmented Nuclei (%) of 31

----------
tested on: Fibroblast; test: Multiplex assay against human fibroblast; type: toxicity, cell-based; conditions: 48 h, 1 µM, compound concentration 1 uM, replicate 2
Respond with YES for Population Membrane Permeable-Phenotype (%) values of 10% and above, NO for values below.

# compound, label
rows = [
    ("C=CC(=O)Nc1ccc2ncnc(Nc3ccc(OCc4cccc(F)c4)c(Cl)c3)c2c1.Cc1ccc(S(=O)(=O)O)cc1", "YES"),
    ("Cc1nc(-c2ccc(-c3ccc(C(=O)N4CCc5cc6c(cc54)C4(CCN(C)CC4)CO6)cc3)c(C)c2)no1", "YES"),
    ("CNc1nc(NCc2ccc(NS(C)(=O)=O)cc2Cl)cc(-c2ccccn2)n1", "NO"),
    ("Cc1[nH]c(/C=C2\\C(=O)Nc3ccc(S(=O)(=O)N(C)c4cccc(Cl)c4)cc32)c(C)c1C(=O)N1CCN(C)CC1", "YES"),
    ("CN(C)CC#Cc1ccc(OCCCc2sc(N3CCc4cccc(C(=O)Nc5nc6ccccc6s5)c4C3)nc2C(=O)O)c(F)c1", "YES"),
    ("COc1cc(-n2cnc3cc(-c4ccc(Cl)cc4)sc3c2=O)ccc1OCCN1CCCC1", "YES"),
    ("CN1CCN(CCOc2cc(OC3CCOCC3)c3c(Nc4c(Cl)ccc5c4OCO5)ncnc3c2)CC1", "YES"),
    ("c1cn2cc(-c3ccc4cn[nH]c4c3)nc(Nc3ccc(N4CCOCC4)cc3)c2n1", "NO"),
]

QUERY: Reported Population Membrane Permeable-Phenotype (%) reaches at least 10% for "Cc1cc(C)cc(-c2cnc3cc(Cl)c(-c4cccc(O)c4)cc3c2OCCCN)c1" ?
RESULT: YES

QUERY: Reported Population Membrane Permeable-Phenotype (%) reaches at least 10% for "CN1CCN(c2ccc(OC(F)(F)F)c(Nc3ncc4c(n3)-c3c(c(C(N)=O)nn3CCO)CC4)c2)CC1" ?
RESULT: YES

QUERY: Reported Population Membrane Permeable-Phenotype (%) reaches at least 10% for COc1cccc([C@@H](C)NCCCc2ccccc2Cl)c1.Cl [TECALCET HYDROCHLORIDE] ?
RESULT: YES

QUERY: Reported Population Membrane Permeable-Phenotype (%) reaches at least 10% for "OC1(c2ccc(Cl)cc2)CCN(Cc2c[nH]c3ccccc23)CC1" ?
RESULT: NO
